Source listed as PubChem BioAssay (NCATS).

experiment: Cell Proliferation Assay Versus the ED40515 IL2 Dependent ATL cell lines (AID 1053195); details: ED40515 IL2-dependent ATL cells
The source made the active and inactive calls. The call rests on the fitted dose curve.
Below, each of the compounds is paired with its reported Potency value.

COMPOUND	Potency
Cc1csc(NC(=O)c2sc3nc4c(c(C(F)(F)F)c3c2N)CCC4)n1	18.7 µM (active)
CC(C)(N)C(=O)N[C@H](COCc1ccccc1)C(=O)N1CCC2(CC1)CN(S(C)(=O)=O)c1ccccc12	11.8 µM (active)

# lookup: Potency of "CCn1c(-c2nonc2N)nc2cnc(Oc3cccc(NC(=O)c4ccc(OCCN5CCOCC5)cc4)c3)cc21"
0.59 µM (active)

If you can, please state the reported Potency value of "Cc1c(CCOc2ccc(C(=O)O)cc2)c2cc(Cl)ccc2n1C(c1ccccc1)c1ccccc1" .
23.5 µM (active)

----------
assay: qHTS profiling of the MIPE4 collection as inhibitors of Plasmodium falciparum (DD2) proliferation (Rep 2) (AID 743346); settings: P. falciparum Dd2 in erythrocytes, SYBR Green DNA, 72 h; at 28.5 µM (top of the series) unless noted
Measured parasite growth, % of control (lower = inhibition) of individual entries
Field note: include the unit after the figure.

Examples from the recorded data:
COMPOUND	ENDPOINT RESULT
Cc1ccc(N(CC2=NCCN2)c2cccc(O)c2)cc1	57%
Cc1c(C)c2c(c(C)c1O)CCC(C)(COc1ccc(CC3SC(=O)NC3=O)cc1)O2 (stereo unspecified)	43.6%
Fc1ccc(Cl)cc1-c1nc(Nc2ccncc2)c2nccnc2n1	30.8%

Any idea what its parasite growth, % of control (lower = inhibition) is? The compound is NCCCC(N)(C(=O)O)C(F)F (stereo unspecified)
157%

Given "COc1ccc(-c2ccc3c(N4CCOCC4)nc(N4C[C@@H](C)O[C@@H](C)C4)nc3n2)cc1CO" , state its recorded parasite growth, % of control (lower = inhibition).
17.2%

Data request, read-out parasite growth, % of control (lower = inhibition), for "COc1cc(F)c(F)c(Nc2ccc(I)cc2F)c1NS(=O)(=O)C1(C[C@H](O)CO)CC1"
26.7%

----------
System: CP238
Test: qHTS profiling for inhibitors of Plasmodium falciparum proliferation (AID 504749);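 further: 0% = DMSO vehicle and full inhibition = artemisinin control; nearly all actives have a fitted effect of over 60% in size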
Conditions: P. falciparum in erythrocytes, SYBR Green DNA, 72 h; series mostly up to 28.7 µM
Protocol: NIH National Institute of Allergy and Infectious Diseases [NIAID] NIH Chemical Genomics Center [NCGC] […] Because mature erythrocytes lack DNA, only Plasmodium-derived DNA is detected. NCGC Assay Protocol Summary: The SYBR Green viability assay was adapted from a method described previously (Plouffe et al., 2008). […] The following morning, fluorescence intensity at 485(14) nm excitation and 535(25) nm emission wavelengths was measured on an EnVision (Perkin Elmer) plate reader. […]
Inconclusive results are not listed. Activity calls are given as the source filed them. Calls follow the shape of the dose curve; as a rule, active = well fitted inhibition curve with a large enough effect; inconclusive = small, poorly fitted or top-dose-only effect; inactive = flat fitted curve, though single readings scatter.

SMILES STR	outcome
Nc1nc2ccc(OC(F)(F)F)cc2s1	inactive
CNC[C@H](O)c1cccc(O)c1	inactive
N#Cc1ccc(C(c2ccc(C#N)cc2)n2cncn2)cc1	inactive

----------
experiment: Quantitative High-Throughput drug screen in 47 multiple myeloma cell lines against the NCATS MIPE library collection: KHM11_PLB cell viability assay (AID 1918962); conditions: KHM11 myeloma cell viability, CellTiter-Glo ATP luminescence, 48 h; series mostly up to 45.8 µM; further: nearly all actives have a fitted effect of over 35% in size
Records with an inconclusive call do not appear. Active and inactive are the calls of the source. Calls follow the shape of the dose curve; as a rule, active = well fitted cell-killing curve with a large enough effect; inconclusive = small, poorly fitted or top-dose-only effect, or effect the other way; inactive = no such curve, though single readings can be large or run the other way.
Respond using exactly one of the listed classes: active, inactive

MOLECULE	LABEL
CCn1c(-c2nonc2N)nc2c(C#CC(C)(C)O)ncc(OC[C@H]3CCCNC3)c21	active
COc1ccc(COc2cc3oc(=O)c4cc(C(C)O)ccc4c3cc2OC)cc1 (centres undefined)	active
NC(=O)C1CCCc2c1[nH]c1ccc(Cl)cc21 (centres undefined)	active
Cc1ccc(NC(=O)c2cccc(C(C)(C)C#N)c2)cc1Nc1ccc2ncn(C)c(=O)c2c1	active

# fetch the recorded call for "Clc1cccc(Cl)c1NC1=NCCN1" here
inactive

Which outcome did this test record for the molecule "COc1ccccc1[C@H](c1cccc2ccccc12)[C@@](C)(C#N)C(=O)N1CCC(c2cccc(C(F)(F)F)c2)CC1" ?
active

What did this assay record as the result for "CCOc1cc(N2CCC(O)CC2)ccc1Nc1ncc2c(n1)N(C)c1ccccc1C(=O)N2C" ?
active

GET /call?item= "CN[C@@H](C)C(=O)N[C@H]1CCCC[C@H]2CC[C@@H](C(=O)N[C@@H](c3ccccc3)c3cn(CCCCc4ccc(CCCCn5cc([C@@H](NC(=O)[C@@H]6CC[C@@H]7CCCC[C@H](NC(=O)[C@H](C)NC)C(=O)N76)c6ccccc6)nn5)cc4)nn3)N2C1=O" returns the recorded outcome of this test.
active

Assay result, entry "O=C(NOC[C@H](O)CO)c1ccc(F)c(F)c1Nc1ccc(I)cc1F" — outcome?
active

What did this assay record as the result for "CCCS(=O)(=O)Nc1ccc(F)c(C(=O)c2c[nH]c3ncc(-c4ccc(Cl)cc4)cc23)c1F" ?
active

What did this assay record as the result for "C[C@]1(c2nc3c(C(N)=O)cccc3[nH]2)CCCN1" ?
active

Hi, sorry to bother you, what did the test record for "COc1ccc(-c2ccc3c(N4CCOCC4)nc(N4C[C@@H](C)O[C@@H](C)C4)nc3n2)cc1CO" ?
active

Kindly provide the recorded test outcome for the following molecule: "COc1c(Cl)cc2c([nH]c3cnccc32)c1NC(=O)c1cccnc1C"
active

----------
assay: Quantitative High-Throughput drug screen in 47 multiple myeloma cell lines against the NCATS MIPE library collection: XG6_PLB cell viability assay (AID 1919865); settings: XG6 myeloma viability, CellTiter-Glo ATP luminescence, 48 h; series mostly up to 45.8 µM; further: nearly all actives have a fitted effect of over 40% in size
Records with an inconclusive call do not appear. Active and inactive are the calls of the source. Calls come from the whole dose curve; as a rule, active = well fitted cell-killing curve with a large enough effect; inconclusive = small, poorly fitted or top-dose-only effect, or effect the other way; inactive = no such curve, though single readings can be large or run the other way.
Would you mind answering with one of these outcomes? true (1) for active, false (0) for inactive

COMPOUND	LABEL
CCN(CC)CCCC(C)Nc1ccnc2cc(Cl)ccc12 (stereo unspecified)	true (1)
CNC[C@H](O)c1cccc(O)c1	false (0)

Could you please tell me the result logged for "Nc1nccc(-c2ccc3noc(-c4ccc(Cl)cc4)c3c2)n1" in this assay?
true (1)

Please share the test call associated with "S=C(NCc1ccc2c(c1)OCO2)N1CCN(c2ncnc3c2oc2ccccc23)CC1" .
true (1)

Per the records of this test, what outcome belongs to "COc1ccc(-c2ccc3c(N4CCOCC4)nc(N4C[C@@H](C)O[C@@H](C)C4)nc3n2)cc1CO" ?
true (1)

What did the test return for "Cc1cc(C=c2sc3nc4ccccc4n3c2=O)c(C)n1-c1ccccc1" ?
false (0)

----------
Assay: qHTS of pediatric cancer cell lines to identify multiple opportunities for drug repurposing: Primary screen for Saos-2 cells (AID 1347097); further: nearly all actives have a fitted effect of over 40% in size
Settings: Saos-2 viability, CellTiter-Glo ATP luminescence, 48 h; series mostly up to 46 µM
Procedure: Drug repurposing or repositioning has been offered as a strategy for drug development in oncology programs. This approach has special potential for childhood cancers and other rare or orphan diseases, where the expected return on new drug development has been a disincentive to pharmaceuticals. […] We employed a titration-based paradigm (quantitative high-throughput screening or qHTS), where all compounds were tested at multiple concentrations for their effect on cell viability. […]
Inconclusive results are not listed. Calls of active or inactive are those of the source. Calls come from the whole dose curve; as a rule, active = well fitted cell-killing curve with a large enough effect; inconclusive = small, poorly fitted or top-dose-only effect; inactive = no such curve, though single readings can be large or run the other way.
Response enum: 1 = active, 0 = inactive

Solved entries:
SMILES STR	LABEL
Cc1c(CCOc2ccc(C(=O)O)cc2)c2cc(Cl)ccc2n1C(c1ccccc1)c1ccccc1	0
NNCCc1ccccc1	0
O=C(C=Cc1ccc(/C=C/C(=O)Nc2ccc(C3=NCCN3)cc2)cc1)Nc1ccc(C2=NCCN2)cc1	0
O=NN(CCCl)C(=O)NCCCl	0
Nc1nccc(-c2ccc3noc(-c4ccc(Cl)cc4)c3c2)n1	0

Consider the additional compound presented here.
Please let me know the test result on file for "CCOc1cc(N2CCC(O)CC2)ccc1Nc1ncc2c(n1)N(C)c1ccccc1C(=O)N2C" .
1

----------
assay: Primary qHTS for inhibitors of nuclear receptor binding SET domain protein 2 (NSD2) in an isogenic RCH-ACV NSD2 p.E1099K mutant (9B) (AID 1645876); conditions: RCH-ACV (leukaemia line) NSD2 E1099K (9B) viability, CellTiter-Glo, 72 h; series mostly up to 44.9 µM; further: nearly all actives have a fitted effect of over 70% in size
Inconclusive results are not listed. Activity calls are given as the source filed them. Calls come from the whole dose curve; as a rule, active = well fitted inhibition curve with a large enough effect; inconclusive = small, poorly fitted or top-dose-only effect; inactive = flat fitted curve, though single readings scatter.
Outcome field: choose from True (active), False (inactive)

MOLECULE	LABEL
Cc1ccccc1C(OCCN(C)C)c1ccccc1 (centres undefined)	False

What classification did "O=NN(CCCl)C(=O)NCCCl" end up with in this test?
False

GET /call?item= "O=C1[C@H](Cc2ccc(O)cc2)N2C(=O)CCN(C(=O)NCc3ccccc3)[C@H]2CN1Cc1cccc2ccccc12" returns the recorded outcome of this test.
True

In this assay, the call recorded for "NC(=O)c1ccc(-c2nc(-c3ccc4c(c3)OCCO4)c(-c3ccccn3)[nH]2)cc1" was what?
False

// return assay outcome for NC(=O)C1CCCc2c1[nH]c1ccc(Cl)cc21 (centres undefined)
False
